IC50, Cytochrome P450 2D6 (Homo sapiens): measured values

>>> result("O=C(O)CCc1c(Cn2c(=O)n(C3CC3)c3ccncc32)nc2cc(Cl)ccn12")
"> 50 µM"

### Prompt Write down IC50 measured for item `CCS(=O)(=O)CCc1c(Cn2c(=O)n(C3CC3)c3ccncc32)nc2cc(Cl)ccn12`
### Response > 50 µM

----------
# PROCEDURE_DETAILS: Solubility of the compound in phosphate buffer at pH 6.5 after overnight incubation by LYSA method
PROPERTY_MEASURED: solubility (mg/mL)

Reference set, count: 2
>>> numeric_readout("CS(=O)(=O)CCc1c(Cn2c(=O)n(C3CC3)c3ccncc32)nc2cc(Cl)ccn12")
0.059
>>> numeric_readout("O=C(CCc1c(Cn2c(=O)n(C3CC3)c3ccncc32)nc2cc(Cl)ccn12)NCCO")
0.107

a: O=c1n(Cc2nc3cc(Cl)ccn3c2CCCCO)c2cnccc2n1C1CC1
b: CCS(=O)(=O)CCc1c(Cn2c(=O)n(C3CC3)c3ccncc32)nc2cc(Cl)ccn12
c: NC(=O)CCc1c(Cn2c(=O)n(C3CC3)c3ccncc32)nc2cc(Cl)ccn12
d: O=C(O)CCc1c(Cn2c(=O)n(C3CC3)c3ccncc32)nc2cc(Cl)ccn12
### Prompt Ascending sort, solubility. To answer, write out the labels according to the requested order.
### Response a, b, c, d
(a: 0.02 mg/mL, b: 0.046 mg/mL, c: 0.087 mg/mL, d: 0.541 mg/mL)

----------
Recorded EC50 by entry
# PROCEDURE_DETAILS: Antiviral activity against Respiratory syncytial virus A infected in human Hep2 cells assessed as reduction of virus-induced cytopathic effect after 6 days by CCK-8 assay
# Format: functional, cell-based, Respiratory syncytial virus type A
# SETUP_CONDITIONS: HEp-2, 144 h
Return type: number; implicit unit nM.

Reference set, count: 2
>>> numeric_readout("CCc1ccn2c(CCCCO)c(Cn3c(=O)n(C4CC4)c4ccncc43)nc2c1")
7
>>> numeric_readout("CCS(=O)(=O)CCc1c(Cn2c(=O)n(C3CC3)c3ccncc32)nc2cc(Cl)ccn12")
3

### Prompt Write down EC50 measured for item `O=c1n(Cc2nc3ccc(F)cn3c2CCCCO)c2cnccc2n1C1CC1`
### Response 96

### Prompt Write down EC50 measured for item `CS(=O)(=O)c1ccc(-c2c(Cn3c(=O)n(C4CC4)c4ccncc43)nc3cc(Cl)ccn23)cc1`
### Response 89

### Prompt Write down EC50 measured for item `O=c1n(Cc2nc3cc(Cl)ccn3c2CCCCO)c2cnccc2n1C1CC1`
### Response 7

### Prompt Write down EC50 measured for item `O=C(CCc1c(Cn2c(=O)n(C3CC3)c3ccncc32)nc2cc(Cl)ccn12)NCCO`
### Response 10

### Prompt Write down EC50 measured for item `O=C(O)CCc1c(Cn2c(=O)n(C3CC3)c3ccncc32)nc2cc(Cl)ccn12`
### Response 53

### Prompt Write down EC50 measured for item `O=c1n(Cc2nc3cc(C(F)(F)F)ccn3c2CCCCO)c2cnccc2n1C1CC1`
### Response 217

### Prompt Write down EC50 measured for item `Cc1ccn2c(CCCCO)c(Cn3c(=O)n(C4CC4)c4ccncc43)nc2c1`
### Response 6

### Prompt Write down EC50 measured for item `O=c1n(Cc2nc3cc(F)ccn3c2CCCCO)c2cnccc2n1C1CC1`
### Response 23

Each recorded value in this set is attributed to ChEMBL document CHEMBL3425470.
